- measurement-protocol: Ocular tissue concentrations (aqueous humor, vitreous humor, iris, retina, choroid, cornea) after topical ocular, subcutaneous and intravitreal administration
- Type: in vivo, New Zealand White rabbits
- measurement-setup: New Zealand White, rabbit, choroid, subcutaneous, 5 mg/kg/dose, Choroid, 0.5 hr; free acid, subcutaneous 5 mg/kg/dose, Group 3; read-out: Choroid Average
metric-name: concentration at 0.5 h

Query: concentration at 0.5 h; subject: COC(=O)N[C@@H](Cc1ccccc1)C(=O)N[C@@H](Cc1ccc(NS(=O)(=O)O)cc1)c1csc(-c2cccs2)n1 127 ng/g

###

- measurement-protocol: Ocular tissue concentrations (aqueous humor, vitreous humor, iris, retina, choroid, cornea) after topical ocular, subcutaneous and intravitreal administration
- Type: in vivo, New Zealand White rabbits
- measurement-setup: New Zealand White, rabbit, retina, subcutaneous, 5 mg/kg/dose, TABLE 16: Retina, 2 hr, OD; free acid, subcutaneous 5 mg/kg/dose, Group 3; read-out: Retina Conc. (ng/g) OD
metric-name: concentration at 2 h (ng/g)
One number for each entry, in ng/g.

Sample COC(=O)N[C@@H](Cc1ccccc1)C(=O)N[C@@H](Cc1ccc(NS(=O)(=O)O)cc1)c1csc(-c2cccs2)n1 — what was its concentration at 2 h? 6.31
